Tested on: Staphylococcus aureus
Test protocol: Antimicrobial activity against Staphylococcus aureus ATCC 29213 incubated overnight under aerobic condition by microbroth dilution method
Format: functional
Each entry below carries its reported MIC.
Enter your answer as a number in µM; do not include the unit.

{"Chemical string": "CCc1ccc(NC(=O)N[C@@H](Cc2cc(F)cc(F)c2)C(=O)N[C@@H]2C(=O)N3CCC[C@H]3C(=O)N(C)[C@@H](C)C(=O)N[C@@H](C)C(=O)N3CCC[C@H]3C(=O)O[C@H]2C)cc1", "MIC [µM]": 0.2}
{"Chemical string": "Cc1ccc(NC(=O)N[C@@H](Cc2cc(F)cc(F)c2)C(=O)N[C@@H]2C(=O)N3CCC[C@H]3C(=O)N3CCCC[C@H]3C(=O)N[C@@H](C)C(=O)N3C[C@H](C)C[C@H]3C(=O)O[C@H]2C)cc1", "MIC [µM]": 0.05}
{"Chemical string": "C[C@H]1C[C@H]2C(=O)OC[C@H](NC(=O)[C@H](Cc3cc(F)cc(F)c3)NC(=O)Nc3ccc4c(c3)OCO4)C(=O)N3CCC[C@H]3C(=O)N3CCCC[C@H]3C(=O)N[C@@H](C)C(=O)N2C1", "MIC [µM]": 3.1}
{"Chemical string": "C[C@H]1C[C@H]2C(=O)O[C@@H](C)[C@H](NC(=O)[C@H](Cc3cc(F)cc(F)c3)NC(=O)Nc3ccc(OC(F)(F)F)cc3)C(=O)N3CCC[C@H]3C(=O)N(C)[C@@H](C)C(=O)N[C@@H](C)C(=O)N2C1", "MIC [µM]": 0.05}

Let us move to another entry and its MIC.
Documented MIC of `Cc1ccc(NC(=O)N[C@@H](Cc2cc(F)cc(F)c2)C(=O)N[C@@H]2C(=O)N3CCC[C@H]3C(=O)N(C)[C@@H]([C@H](C)O)C(=O)N[C@@H](C)C(=O)N3C[C@H](C)C[C@H]3C(=O)O[C@H]2C)cc1` : 0.05

###

Test system: Staphylococcus aureus
Test protocol: Antimicrobial activity against Staphylococcus aureus ATCC 29213 incubated overnight under aerobic condition by microbroth dilution method
Type: functional
Reported endpoint: MIC (µM)
Value expressed in µM; do not type the unit.

Use the examples below as a reference point.
{"Chemical string": "C[C@@H]1NC(=O)[C@@H]2CCCCN2C(=O)[C@@H]2CCCN2C(=O)[C@@H](NC(=O)[C@H](Cc2cc(F)cc(F)c2)NC(=O)Nc2ccc3c(c2)OCO3)[C@H](C)OC(=O)[C@@H]2CCCN2C1=O", "MIC (µM)": 3.1}
{"Chemical string": "C[C@H]1C[C@H]2C(=O)OC[C@H](NC(=O)[C@H](Cc3ccccc3)NC(=O)Nc3ccc(OC(F)(F)F)cc3)C(=O)N3CCC[C@H]3C(=O)N3CCCC[C@H]3C(=O)N[C@@H](C)C(=O)N2C1", "MIC (µM)": 0.4}
{"Chemical string": "Cc1ccc(NC(=O)N[C@@H](Cc2cc(F)cc(F)c2)C(=O)N[C@@H]2C(=O)N3CCC[C@H]3C(=O)N3CCOC[C@H]3C(=O)N[C@@H](C)C(=O)N3C[C@H](C)C[C@H]3C(=O)O[C@H]2C)cc1", "MIC (µM)": 0.003}

# MIC of `CCc1ccc(NC(=O)N[C@@H](Cc2cc(F)cc(F)c2)C(=O)N[C@@H]2C(=O)N3CCC[C@H]3C(=O)N(C)[C@@H](C)C(=O)N[C@@H](C)C(=O)N3C[C@@H](C)C[C@H]3C(=O)O[C@H]2C)cc1` = 0.1

Record `CCc1cccc(NC(=O)N[C@@H](Cc2ccccc2)C(=O)N[C@H]2COC(=O)[C@@H]3C[C@@H](C)CN3C(=O)[C@H](C)NC(=O)[C@@H]3CCCCN3C(=O)[C@@H]3CCCN3C2=O)c1` , field MIC: 0.6

Looking up `C[C@@H]1NC(=O)[C@H](C)N(C)C(=O)[C@@H]2CCCN2C(=O)[C@@H](NC(=O)[C@H](Cc2cc(F)cc(F)c2)NC(=O)Nc2ccc(OC(F)(F)F)cc2)[C@H](C)OC(=O)[C@@H]2CCCN2C1=O` , I see its MIC listed as 0.2

Notebook: `NC[C@H]1O[C@H](O[C@H]2[C@H](O)[C@@H](O[C@H]3O[C@H](CO)[C@@H](O)[C@H](N)[C@H]3O)[C@H](N)C[C@@H]2N)[C@H](O)[C@@H](O)[C@@H]1O` , MIC read as 1.56

###

# log10 of MIC annotations
Test system: Staphylococcus aureus
Test protocol: Antimicrobial activity against Staphylococcus aureus ATCC 29213 incubated overnight under aerobic condition by microbroth dilution method
Format: functional
Parameter value (number): base-10 log of MIC in µM.

These recorded examples may help you get a feel for the data.
{"Chemical string": "COc1cccc(NC(=O)N[C@@H](Cc2ccccc2)C(=O)N[C@H]2COC(=O)[C@@H]3C[C@@H](C)CN3C(=O)[C@H](C)NC(=O)[C@@H]3CCCCN3C(=O)[C@@H]3CCCN3C2=O)c1", "log10 of MIC": 0.50}
{"Chemical string": "CN[C@@H]1[C@H](O)[C@H](NC)[C@H]2O[C@@]3(O)C(=O)C[C@@H](C)O[C@H]3O[C@@H]2[C@H]1O", "log10 of MIC": 1.70}
{"Chemical string": "C[C@@H]1C[C@H]2C(=O)O[C@@H](C)[C@H](NC(=O)[C@H](Cc3cc(F)cc(F)c3)NC(=O)Nc3ccc(OC(F)(F)F)cc3)C(=O)N3CCC[C@H]3C(=O)N3CCCC[C@H]3C(=O)N[C@@H](C)C(=O)N2C1", "log10 of MIC": -1.30}
{"Chemical string": "C[C@H]1C[C@H]2C(=O)O[C@@H](C)[C@H](NC(=O)[C@H](Cc3cc(F)cc(F)c3)NC(=O)Nc3ccc(OC(F)(F)F)cc3)C(=O)N3C[C@H](O)C[C@H]3C(=O)N(C)[C@@H](C)C(=O)N[C@@H](C)C(=O)N2C1", "log10 of MIC": -1.00}

Could you now consider this next compound?
Entry `C[C@H]1C[C@H]2C(=O)O[C@@H](C)[C@H](NC(=O)[C@H](Cc3cc(F)cc(F)c3)NC(=O)Nc3ccc4c(c3)OCO4)C(=O)N3CCC[C@H]3C(=O)N3CCCC[C@H]3C(=O)N[C@@H](C)C(=O)N2C1` , Staphylococcus aureus data, log10 of MIC value: -0.10
